Test: qHTS Assay for Identifying Gametocytocidal Compounds (AID 743244);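 further: on the % scale 0 is the no-effect control and ±100 the full control effect; actives lower the fluorescent signal which means gametocytes are killed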
Settings: P. falciparum 3D7 stage III-V gametocytes, alamarBlue, 72 h; hits give low values
Results filed as inconclusive are left out. Where a SMILES comes first, the peptide text is derived from it. Bridges are numbered along the chain shown (N, C = ends). [ ]: non-standard residue; d: D form. Orn = NCCC[C@H](N)C(=O)O; Mpa = O=C(O)CCS
parameter: max response (%)
Write down the numeric answer in % and omit the unit.

Given `O=P(O)(O)OC(CO)CO` , respond with its max response.
10.5

Assign max response to the following record: OCC(O)COc1ccc(Cl)cc1 (stereo not given)
3.94

Identify max response associated with the molecule `O=S(O)CNc1ccc(S(=O)(=O)c2ccc(NCS(=O)O)cc2)cc1`
-0.921

For the molecule `COc1cc2[nH]c(C)c(CCN3CCN(c4ccccc4)CC3)c2cc1OC` , report max response.
16.1

Report measured max response; entry is `CN1CCN(C2=Nc3ccccc3Cc3ccccc32)CC1`
2.36

Give the value of max response reported for the following: `O=P(O)(O)C(Sc1ccc(Cl)cc1)P(=O)(O)O`
17.7

Provide max response value for the following molecule: `CC(C)(C)CC(=O)OCC(=O)[C@@]12OC(C)(C)O[C@@H]1C[C@H]1[C@@H]3CCC4=CC(=O)C=C[C@]4(C)[C@@]3(F)[C@@H](O)C[C@@]12C`
-15

# return recorded max response for entry O=C1O[C@H]2[C@H](O)[C@@H]1OC(O)[C@H]2O (stereo not given in full)
-4.25

Input COc1ccc(CCNCC(O)COc2cccc(C)c2)cc1OC (stereo not given) , output reported max response.
11.3

Specify max response for CN(C)CCOc1ccccc1Cc1ccccc1 (tested in a mixture with another compound) and stop.
6.62

Recall and state the measured max response for `O=S(O)CO` .
18.2

Annotate the molecule `C[C@]12CC[C@@H]3c4ccc(OS(=O)(=O)O)cc4CC[C@H]3[C@@H]1CCC2=O` with its measured max response.
-15.6

Please report max response for the following molecule: NCCCC[C@H](NC(=O)[C@@H]1CCCN1C(=O)[C@@H]1CSSC[C@H](NC(=O)CNC(=O)CNC(=O)CN)C(=O)N[C@@H](Cc2ccc(O)cc2)C(=O)N[C@@H](Cc2ccccc2)C(=O)N[C@@H](CCC(N)=O)C(=O)N[C@@H](CC(N)=O)C(=O)N1)C(=O)NCC(N)=O (H-GGGCYFQNCPKG-NH2; disulfide 4-9)
-2

Tell us which max response value is on record for `CO/N=C(\C(=O)N[C@@H]1C(=O)N2C(C(=O)OCOC(=O)C(C)(C)C)=C(/C=C\c3scnc3C)CS[C@H]12)c1csc(N)n1`
-6.43

Note max response for the molecule shown: `CS(=O)(=O)Nc1cc2occ(NC=O)c(=O)c2cc1Oc1ccccc1`
-2.7

Tell me its max response given `CCCC1([C@H](O)C/C=C/[C@H]2[C@H](O)CC(=O)[C@@H]2CCCCCCC(=O)OC)CCC1` as the entry.
2.12

Quickly give me recorded max response for `C1CNCCN1`
-4.23

Give the reported max response for this molecule. `CO[C@H]1[C@@H](O)[C@H](N)[C@@H](O[C@H]2O[C@H]([C@H](C)N)CC[C@H]2N)[C@H](O)[C@@H]1N(C)C(=O)CN`
15.1

Give me measured max response, please, for this molecule: `CCC(C)(C)OC(=O)N[C@@H](Cc1c[nH]c2ccccc12)C(=O)N[C@@H](CCSC)C(=O)N[C@@H](CC(=O)O)C(=O)N[C@@H](Cc1ccccc1)C(N)=O`
-0.189

Output max response of `CC(=O)S[C@@H]1CC2=CC(=O)CC[C@]2(C)[C@H]2CC[C@@]3(C)[C@@H](CC[C@@]34CCC(=O)O4)[C@H]12`
15.7

Using known records, supply max response for CC(CC(c1ccccc1)c1ccccc1)NC(C)(C)C (stereo not given)
-8.24

Query max response for CN1CC(O)c2cc(N=NC(N)=O)c(O)cc21 (stereo not given)
-4.67

Return the recorded max response value; entry: `CCC(=O)O`
-11.8

Respond only with max response recorded for CC(CN(C)C)CN1c2ccccc2S(=O)(=O)c2ccccc21 (stereo not given)
-15.2

Output max response of CCOc1ccc(C[C@H]2NC(=O)CCSSC[C@@H](C(=O)N3CCC[C@H]3C(=O)N[C@@H](CCCN)C(=O)NCC(N)=O)NC(=O)[C@H](CC(N)=O)NC(=O)[C@H]([C@@H](C)O)NC(=O)[C@H]([C@@H](C)CC)NC2=O)cc1 ([Mpa][dY](Et)ITNCP[Orn]G-NH2; disulfide 1-6)
12.3

Dear colleague, please send me the reported max response for `CC(=O)[C@@]1(O)CC[C@H]2[C@@H]3C=C(Cl)C4=CC(=O)CC[C@]4(C)[C@H]3CC[C@@]21C` when you can.
-4.61

Give the reported value of max response for this record: `CC(=O)O[C@H]1CC[C@@]2(C)C(=CC[C@H]3[C@@H]4CC[C@H](C(C)=O)[C@@]4(C)CC[C@@H]32)C1`
3.94

Read off the recorded max response for CC1(C)S[C@@H]2[C@H](NC(=O)C(C(=O)Oc3ccc4c(c3)CCC4)c3ccccc3)C(=O)N2[C@H]1C(=O)O (stereo not given in full)
5.21

Identify max response associated with the molecule CN(C(=O)CO)c1c(I)c(C(=O)NCC(O)CO)c(I)c(C(=O)NCC(O)CO)c1I (stereo not given)
-2.64

Find the measured max response of `c1ccc2c(CCC3CCNCC3)c[nH]c2c1` and report it.
-9.29

Check the records and state max response for `CCCCCCCCCCCCCCCCCC(=O)OCCO`
-0.219

Complete the entry with the larger response for `O=C[C@H](O)[C@@H](O)[C@H](O)[C@H](O)CO`
-1.25

Retrieve max response measured for `CC(=O)O[C@H]1CC[C@@]2(C)C(=CC[C@@H]3[C@@H]2CC[C@]2(C)C(c4cccnc4)=CC[C@@H]32)C1` and print it.
-2.25

Identify the reported max response for the following entry. `COC1=C(C(=O)O)N2C(=O)[C@@H](NC(=O)[C@H](N)C3=CCC=CC3)[C@H]2SC1`
-12.6

Hello, please tell me recorded max response for this one: `C/C(=C(\CCOC(=O)c1ccccc1)SS/C(CCOC(=O)c1ccccc1)=C(/C)N(C=O)Cc1cnc(C)nc1N)N(C=O)Cc1cnc(C)nc1N`
9.71

---

System: CASKI
Assay: Primary qHTS to identify gynecologic anti-cancer compounds using libraries of approved drugs and bioactive compounds (AID 1345084); further: on the % scale 0 is the no-effect control and ±100 the full control effect; nearly all actives have a fitted effect of over 55% in size
Details: Gynecologic cancer cell panel viability, ATPlite luminescence, 48 h; series mostly up to 57.5 µM
Records with an inconclusive call do not appear. Active and inactive are the calls of the source. Calls come from the whole dose curve; as a rule, active = well fitted cell-killing curve with a large enough effect; inconclusive = small, poorly fitted or top-dose-only effect, or effect the other way; inactive = flat fitted curve, though single readings scatter.
parameter: activity change, negative = cytotoxicity

// solved cases for activity change, negative = cytotoxicity follow
1) CCOc1cccc(NC(=O)c2ccc(N3CCCC3)c(C(F)(F)F)c2)c1 = inactive
2) CC(=O)O[C@@H]1C2=C(O)C(=O)[C@](C)(OC(C)=O)C(=O)C2=CO[C@@]12O[C@@H](C)CC[C@H]2OC(C)=O = inactive
3) CCC(C)CNCC(=O)N1CCc2sccc2C1COc1cccc(C)c1 (stereo not given) = inactive
4) COC(=O)c1cc(Br)cnc1N1CCC(NC2CCCCC2)C(O)C1 (stereo not given) = inactive
5) CCCn1cc2c(nc(NC(=O)Nc3ccc(OC)cc3)n3nc(-c4ccco4)nc23)n1 = inactive
6) C[C@@H](NC(=O)c1ccc(C#Cc2cccc(F)c2)cn1)C(C)(C)O = inactive
7) COCCN(C(=O)c1cc(OC)c(OC)c(OC)c1)c1nc(-c2ccccc2)cs1 = inactive
8) O=C1COC2(CCN(S(=O)(=O)c3ccc(-c4ccc5cccnc5c4)cc3)CC2)CN1C1CC1 = inactive
9) O=S1(=O)CCN(Cc2cc(NCC3CCOCC3)c3[nH]c(-c4ccccc4)cc3c2)CC1 = inactive
10) C=C1C(=O)O[C@@H]2[C@H]1CC[C@H](C)C(CCC(=O)O)C2(C)O (stereo not given in full) = inactive

Answer with the recorded activity change, negative = cytotoxicity of `C[C@@H](c1ccc2nccn2c1)n1nnc2ncc(-c3cnn(C)c3)nc21` only.
inactive

Give activity change, negative = cytotoxicity for the following compound: `Cc1cc(C(=O)Nc2cc(Nc3ccc4c(/C=C/c5ccccn5)n[nH]c4c3)ccc2F)n(C)n1`
inactive

Give activity change, negative = cytotoxicity for `N#Cc1ccc2ncnc(NCCc3ccccc3)c2c1`
inactive

Entry `C[C@@H](NC(=O)[C@H](O)c1cc(F)cc(F)c1)C(=O)N[C@@H]1C(=O)N(C)c2ccccc2-c2ccccc21` needs its activity change, negative = cytotoxicity filled in; supply it.
inactive

Consider the compound `Nc1nc2c(nc(Br)n2[C@@H]2O[C@@H]3COP(=O)(O)O[C@H]3[C@H]2O)c(=O)[nH]1` . State its measured activity change, negative = cytotoxicity.
inactive

// Input: CC(=O)N[C@H]1[C@H](O[C@H]2CC[C@@]3(C)C(CC[C@]4(C)C3CC=C3C5CC(C)(C)CC[C@]5(C(=O)O)C(O)C[C@]34C)C2(C)C)O[C@H](CO[C@@H]2O[C@H](C)[C@H](O)[C@H](O)[C@H]2O[C@@H]2OC[C@@H](O)[C@H](O)[C@H]2O)[C@@H](O)[C@@H]1O (stereo not given in full) . Output its activity change, negative = cytotoxicity only.
25.2% [at 11.6 µM] (inactive)

Complete the entry with activity change, negative = cytotoxicity for `CCn1c(=O)c(-c2ccc(-c3cncs3)cc2Cl)cc2cnc(Nc3ccc(N4CCN(C)CC4)cc3)nc21`
inactive

Please indicate activity change, negative = cytotoxicity recorded for C=C1CCCC2(C)CCC(C(C)(C)OC3OC(C)C(O)C(O)C3OC(=O)/C(C)=C\C)CC12 (stereo not given)
inactive
